All values here come from patent US9174991B2.

Conditions: 39% to 50% relative humidity, dark, air, 5 d; measured 42.8% (Form A 38.6%), 24° C.
outcome.measure: PXRD

- Nc1nc(O)c2c(CCc3ccc(C(=O)N[C@@H](CCC(=O)O)C(=O)O)cc3)c[nH]c2n1 [Heptahydrate]: Heptahydrate
- Nc1nc(O)c2c(CCc3ccc(C(=O)N[C@@H](CCC(=O)O)C(=O)O)cc3)c[nH]c2n1 [2.5 hydrate]: Heptahydrate

* * *

// HPLC-purity (10.5 min) lookup, one value per entry
Conditions: starting material, before storage
Use % as the unit, but write only the number.

Need HPLC-purity (10.5 min), item Nc1nc(O)c2c(CCc3ccc(C(=O)N[C@@H](CCC(=O)O)C(=O)O)cc3)c[nH]c2n1 [2.5 hydrate] 99.86

Further, for Nc1nc(O)c2c(CCc3ccc(C(=O)N[C@@H](CCC(=O)O)C(=O)O)cc3)c[nH]c2n1 [Form IV] ? 99.85

Try this molecule next: Nc1nc(O)c2c(CCc3ccc(C(=O)N[C@@H](CCC(=O)O)C(=O)O)cc3)c[nH]c2n1 [Form A] 99.59

How about Nc1nc(O)c2c(CCc3ccc(C(=O)N[C@@H](CCC(=O)O)C(=O)O)cc3)c[nH]c2n1 [Heptahydrate] ? 99.90
